Source of measurements: patent US20230233569A1

- study-system: KRAS G13D (Homo sapiens, UniProt P01116+P62937, G13D)
- Sequence (P01116 1-169 isoform P01116-2 G13D limits assumed): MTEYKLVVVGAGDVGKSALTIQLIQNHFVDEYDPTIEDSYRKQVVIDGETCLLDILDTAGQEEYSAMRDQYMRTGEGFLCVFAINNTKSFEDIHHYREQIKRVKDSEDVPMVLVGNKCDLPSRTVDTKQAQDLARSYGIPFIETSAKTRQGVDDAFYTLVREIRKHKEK
- Sequence (P62937 whole entry): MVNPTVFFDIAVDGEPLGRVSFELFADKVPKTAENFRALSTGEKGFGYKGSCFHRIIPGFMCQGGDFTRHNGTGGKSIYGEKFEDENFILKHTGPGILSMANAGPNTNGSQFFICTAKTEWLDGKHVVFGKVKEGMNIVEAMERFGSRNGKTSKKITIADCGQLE
- assay-name: Ras-Raf disruption / FRET / MOA assay (BRAF RBD)
- Format: biochemical
- condition-info: Ras-Raf disruption, with Cyclophilin A; read-out: KRAS G13D FRET data IC50
Measured IC50 accompanies every entry in the list below.
metric-name: IC50

* CCn1c(-c2cccnc2[C@H](C)OC)c2c3cc(ccc31)-c1cc(O)cc(c1)C[C@H](NC(=O)[C@H](C(C)C)N1CCC3(CN(C(=O)[C@@H]4CN4)C3)C1=O)C(=O)N1CCC[C@H](N1)C(=O)OCC(C)(C)C2 | 10 to 100 nM
* CCn1c(-c2cccnc2[C@H](C)OC)c2c3cc(ccc31)-c1cc(O)cc(c1)C[C@H](NC(=O)[C@H](C(C)C)N(C)C(=O)C1CCN(S(=O)(=O)[C@@H]3CN3C)CC1)C(=O)N1CCC[C@H](N1)C(=O)OCC(C)(C)C2 (single isomer, unassigned) | 100 to 1000 nM
* CCn1c(-c2cccnc2[C@H](C)OC)c2c3cc(ccc31)-c1csc(n1)C[C@H](NC(=O)[C@H](C(C)C)N(C)C(=O)N1CC[C@H]1CN(C)C(=O)[C@@H]1CN1)C(=O)N1CCC[C@H](N1)C(=O)OCC(C)(C)C2 | 1000 to 10000 nM
* CCn1c(-c2cccnc2[C@H](C)OC)c2c3cc(ccc31)-c1csc(n1)C[C@H](NC(=O)[C@H](C(C)C)N(C)C(=O)N(C)C1CN(C(=O)[C@H]3CN3)C1)C(=O)N1CCC[C@H](N1)C(=O)OCC(C)(C)C2 | 100 to 1000 nM
* CCn1c(-c2cccnc2[C@H](C)OC)c2c3cc(ccc31)-c1cc(O)cc(c1)C[C@H](NC(=O)[C@H](C(C)C)N(C)C(=O)[C@@H]1CCN(C(=O)[C@@H]3CN3)[C@@H]1C)C(=O)N1CCC[C@H](N1)C(=O)OCC(C)(C)C2 (atropisomer, axis not shown) | 100 to 1000 nM
* CCn1c(-c2cccnc2[C@H](C)OC)c2c3cc(ccc31)-c1cc(O)cc(c1)C[C@H](NC(=O)[C@H](C(C)C)N(C)C(=O)[C@H]1CCN(C(=O)[C@H]3CN3)C1)C(=O)N1CCC[C@H](N1)C(=O)OCC(C)(C)C2 (single isomer, unassigned) [Example 43A] | 10 to 100 nM
* CCn1c(-c2cccnc2[C@H](C)OC)c2c3cc(ccc31)-c1cc(O)cc(c1)C[C@H](NC(=O)[C@H](C(C)C)N(C)C(=O)N1CCN(C(=O)[C@@H]3CN3)C(=O)C1)C(=O)N1CCC[C@H](N1)C(=O)OCC(C)(C)C2 | 10 to 100 nM
* CCn1c(-c2cccnc2[C@H](C)OC)c2c3cc(ccc31)-c1csc(n1)C[C@H](NC(=O)[C@H](C(C)C)N(C)C(=O)N(C)CC1CN(C(=O)[C@H]3CN3)C1)C(=O)N1CCC[C@H](N1)C(=O)OCC(C)(C)C2 (atropisomer, axis not shown) | 100 to 1000 nM
* CCCN=C=NCCC(=O)N(C)[C@H](C(=O)N[C@H]1Cc2cccc(c2)-c2ccc3c(c2)c(c(-c2cnccc2COC)n3CC)CC(C)(C)COC(=O)[C@@H]2CCCN(N2)C1=O)C(C)C | > 10000 nM
* CCn1c(-c2cccnc2[C@H](C)OC)c2c3cc(ccc31)-c1csc(n1)C[C@H](NC(=O)[C@H](C(C)C)N(C)C(=O)N(C)CCN(C)C(=O)[C@@H]1CN1)C(=O)N1CCC[C@H](N1)C(=O)OCC(C)(C)C2 (atropisomer, axis not shown) | 100 to 1000 nM
* CCn1c(-c2cccnc2[C@H](C)OC)c2c3cc(ccc31)-c1csc(n1)C[C@H](NC(=O)[C@H](C(C)C)N(C)C(=O)N1CCCN(C(=O)[C@@H]3CN3)CC1)C(=O)N1CCC[C@H](N1)C(=O)OCC(C)(C)C2 (atropisomer, axis not shown) | 100 to 1000 nM
* CCn1c(-c2cccnc2[C@H](C)OC)c2c3cc(ccc31)-c1csc(n1)C[C@H](NC(=O)[C@H](C(C)C)N(C)C(=O)N1CC(CN(C)C(=O)[C@H]3CN3)C1)C(=O)N1CCC[C@H](N1)C(=O)OCC(C)(C)C2 (atropisomer, axis not shown) | 100 to 1000 nM
* CCn1c(-c2cccnc2[C@H](C)OC)c2c3cc(ccc31)-c1cc(O)cc(c1)C[C@H](NC(=O)[C@H](C(C)C)N1CC[C@@]3(CCN(C(=O)[C@H]4CN4)C3)C1=O)C(=O)N1CCC[C@H](N1)C(=O)OCC(C)(C)C2 | 10 to 100 nM
* CCn1c(-c2cnccc2COC)c2c3cc(ccc31)-c1cccc(c1)C[C@H](NC(=O)[C@H](C(C)C)N(C)C(=O)CCN=C=NC(C)(C)C)C(=O)N1CCC[C@H](N1)C(=O)OCC(C)(C)C2 | > 10000 nM
* CCn1c(-c2cccnc2[C@H](C)OC)c2c3cc(ccc31)-c1cc(O)cc(c1)C[C@H](NC(=O)[C@H](C(C)C)N(C)C(=O)[C@H]1CCCCN(C(=O)[C@H]3CN3)C1)C(=O)N1CCC[C@H](N1)C(=O)OCC(C)(C)C2 (atropisomer, axis not shown) | 100 to 1000 nM
